- target_or_system: hSK3 channels (Homo sapiens, UniProt Q9UGI6)
- Construct: expressed in transfected cells; host or cells: HEK293
- method_summary: Whole-cell patch-clamp recording of ionic current through SK channels, subtype 3, in HEK293 cells expressing hSK3
- Type: cell-based
experimental_endpoint: SC100 (Stimulating Concentration required for increasing the baseline current by 100%) (µM)

Some compounds with recorded SC100 (Stimulating Concentration required for increasing the baseline current by 100%):
Cc1c2c(nn1-c1nc(Nc3ccc(F)cc3)c3ncn(C)c3n1)CCC2 [Compound 9.5]    0.15
Cc1ccn(-c2nc(Nc3ccc(F)cc3)c3ncn(C)c3n2)n1 [Compound 6.6]    0.02
Cc1ccn(-c2nc(NCCc3ccccc3)c3ncn(C)c3n2)n1 [Compound 9.3]    0.6

(1) Cc1ccn(-c2nc(Nc3ccc(Cl)cc3)c3ncn(C)c3n2)n1 [Compound 9.1]
(2) Cn1cnc2c(NC3CCCCC3)nc(-n3cccn3)nc21 [Compound 6.3]
(3) Cn1cnc2c(Nc3ccc(Cl)cc3)nc(-n3ccc(C(F)(F)F)n3)nc21 [Compound 6.1]
(4) Cn1cnc2c(Nc3ccc(Cl)cc3)nc(-n3cccn3)nc21 [Compound 6.2]
Prompt: Please list these compounds in decreasing order of SC100 (Stimulating Concentration required for increasing the baseline current by 100%). Write the labels in rank order as requested.
Completion: 2, 3, 4, 1
(2: 0.7 µM, 3: 0.3 µM, 4: 0.18 µM, 1: 0.02 µM)
